Where do these numbers come from? They come from patent US20210040232A1.

# targetOfAssay: T1, soluble human CTLA-4 expressed with a C-terminal myc-myc-polyhistidine tag (human)
# T1 construct: soluble protein; also called hCTLA-4.mmh; hCTLA4.mmh
# T1 sequence (chain, as listed by the source limits assumed): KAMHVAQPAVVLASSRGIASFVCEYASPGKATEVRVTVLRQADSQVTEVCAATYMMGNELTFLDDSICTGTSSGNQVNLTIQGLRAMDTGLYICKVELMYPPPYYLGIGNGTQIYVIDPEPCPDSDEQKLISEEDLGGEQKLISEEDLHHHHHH
# assay: SPR, mAb capture, 25 C
quantityName: kon (M⁻¹ s⁻¹)
Unit M⁻¹ s⁻¹ implied. Number only.

Task: Indicate its recorded kon; the binder in question is H1H19307P (antibody, human IgG1, V domains shown) VH: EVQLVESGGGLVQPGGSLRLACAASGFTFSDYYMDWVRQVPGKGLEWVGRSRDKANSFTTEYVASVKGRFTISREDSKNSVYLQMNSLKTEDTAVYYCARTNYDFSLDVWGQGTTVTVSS VL: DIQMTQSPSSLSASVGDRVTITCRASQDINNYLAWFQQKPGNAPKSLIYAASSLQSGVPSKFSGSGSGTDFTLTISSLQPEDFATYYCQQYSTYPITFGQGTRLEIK
Output: 217000

Task: Indicate its recorded kon; the binder in question is H1H20372N (antibody, human IgG1, V domains shown, here with human IgG1 Fc (H1H)) VH: EVQLVESGGGLVQPGRSLRLSCAGTGFIFDDYAMHWVRQAPGKGLEWVSGISWNSNSLGYADSVKGRFTISRDNAKKSLYLQMSSLRAEDTALYYCVKDVTRLELRGFLDYWGQGTQVTVSS VL: DIQMTQSPSSLSASVGDRVTITCRASQDIRNDLGWHQQKSGKAPKSLIYAASSLQSGAPSRFSGSGSGTEFTLTISSLQPEDSATYYCLQQNSYPPTFGQGTKVEIK
Output: 80500

Kindly consider the entry below.
Task: Indicate its recorded kon; the binder in question is H1H20375N (antibody, human IgG1, V domains shown, here with human IgG1 Fc (H1H)) VH: QLQLQESGPGLVKPSETLSFTCTVSGGSISSNYYYWGWVRQSPGKGLEWIGSIYHTGNAYDNPSLKSRVTISVDTSKNQFSLNLNSVTAADTAIYYCARHHSSSSWWYFDVWGRGTLVIVSS VL: EIVLTQSPDTLSLSPGERATLSCRASQTVSNSHLAWYQQKPGQAPRLLIYGTSSRATGIPDRFSGSGSGTDFSLTIIRLEPDDFAVYFCQQHESSPPTFGQGAKLEIK
Output: 41900
